From: the supplement of paper PMC3334620

Molecular target: Stb5 (UniProt P38699)
Sequence: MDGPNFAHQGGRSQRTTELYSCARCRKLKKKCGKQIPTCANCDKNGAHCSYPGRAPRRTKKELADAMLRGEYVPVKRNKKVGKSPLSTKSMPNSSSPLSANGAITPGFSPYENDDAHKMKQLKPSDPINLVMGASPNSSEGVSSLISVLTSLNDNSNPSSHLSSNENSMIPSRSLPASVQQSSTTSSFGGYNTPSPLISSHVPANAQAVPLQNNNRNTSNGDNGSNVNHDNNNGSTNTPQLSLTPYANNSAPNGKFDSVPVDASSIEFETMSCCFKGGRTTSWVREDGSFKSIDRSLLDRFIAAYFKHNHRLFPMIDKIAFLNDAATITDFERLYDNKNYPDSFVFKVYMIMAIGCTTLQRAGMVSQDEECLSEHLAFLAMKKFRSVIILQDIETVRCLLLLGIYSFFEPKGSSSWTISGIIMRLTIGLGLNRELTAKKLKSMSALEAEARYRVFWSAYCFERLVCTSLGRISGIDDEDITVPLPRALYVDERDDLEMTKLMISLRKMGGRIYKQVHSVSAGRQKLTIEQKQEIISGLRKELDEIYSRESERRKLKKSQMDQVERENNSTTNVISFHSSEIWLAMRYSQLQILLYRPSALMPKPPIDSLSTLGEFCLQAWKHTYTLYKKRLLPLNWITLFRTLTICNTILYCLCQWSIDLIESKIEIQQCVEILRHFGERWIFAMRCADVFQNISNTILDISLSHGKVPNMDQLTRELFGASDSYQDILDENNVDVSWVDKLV
Assay: PBM E-score (8-mer binding enrichment) (E-score (-0.5 to 0.5)); higher = stronger / more preferred TF binding
Conditions: protein concentration: 200 nM; construct: GST-full length
Over roughly 33,000 sequences, “E-score (-0.5 to 0.5)” has its median near -0.054; the highest 2% begin near 0.35. Shown is part of a subset that was picked to be rich in the highest values.
Reported PBM E-score by item:
Answer as a number with no unit attached.

Look up and report measured PBM E-score for this entry: ATATCACC
0.436

Look up and report measured PBM E-score for this entry: TCTGAGCA
-0.254

Look up and report measured PBM E-score for this entry: ATGAACCA
-0.252
